Just for reference, patent US20240417469A1 is where these values come from.

The entries below come with measured CD3-NFAT Activity by CD3 mAb values attached.
target: human CD3 on cells (human PBMC; Jurkat TCR/CD3 NFAT reporter cells) (human, UniProt P07766 23-207; P04234 22-171; P09693 23-182); assay: cell-based or functional assay
Sequence (P07766 23-207, chain 1 of 3): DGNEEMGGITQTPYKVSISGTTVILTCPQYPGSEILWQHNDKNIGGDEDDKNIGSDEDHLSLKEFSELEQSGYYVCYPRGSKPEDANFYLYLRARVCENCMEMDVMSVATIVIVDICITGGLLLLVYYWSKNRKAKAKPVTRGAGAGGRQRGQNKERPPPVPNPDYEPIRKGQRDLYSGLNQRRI
Sequence (P04234 22-171, chain 2 of 3): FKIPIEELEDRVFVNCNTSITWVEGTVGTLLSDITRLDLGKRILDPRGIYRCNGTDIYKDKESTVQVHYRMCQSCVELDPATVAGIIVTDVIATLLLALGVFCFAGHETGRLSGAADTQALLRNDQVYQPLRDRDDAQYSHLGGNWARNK
Sequence (P09693 23-182, chain 3 of 3): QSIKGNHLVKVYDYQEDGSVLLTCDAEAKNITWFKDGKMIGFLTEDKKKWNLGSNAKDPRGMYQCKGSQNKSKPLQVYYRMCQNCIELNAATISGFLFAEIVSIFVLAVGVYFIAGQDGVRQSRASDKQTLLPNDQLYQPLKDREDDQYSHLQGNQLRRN

Some solved entries appear below for comparison.
>  <binder>
Hu192A7B9-6 (antibody, V domains shown, humanized mAb) VH: EVQLQESGPGLVKPSETLSLTCTVSGFSLTSYNVHWVRQPPGKGLEWMGRMRYNGDTSYNSALKSRLTISRDTSKNQVSLKLSSVTAADTAVYYCTRGPRGGYYSALFDYWGQGTMVTVSS VL: DIQMTQSPSSLSASVGDRVTITCKASQNINRYLNWYQQKPGKAPKLLIYIANSLQTGVPSRFSGSGSGTDFTLTISSLQPEDFATYYCLQHNSWYTFGQGTKLEIK

>  <readout.value>
> 50 % SP34

$$$$
>  <binder>
Hu192A7B9-9 (antibody, V domains shown, humanized mAb) VH: EVQLQESGPGLVKPSETLSLTCTVSGGSISSYNVHWVRQPPGKGLEWMGRMRYNGDTSYNSALKSRLTISRDTSKNQFSLKLSSVTAADTAVYYCARGPRGGYYSALFDYWGQGTMVTVSS VL: DIQMTQSPSSLSASVGDRVTITCKASQNINRYLNWYQQKPGKAPKLLISIANSLQTGVPSRFSGSGSGTDFTLTISSLQPEDFATYYCLQHNSWYTFGQGTKLEIK

>  <readout.value>
> 50 % SP34

$$$$

Now for a further binder.
Measured CD3-NFAT Activity by CD3 mAb of Hu155A9B1-11 (antibody, V domains shown, humanized mAb) VH: EVQLQESGPGLVKPSETLSLTCTVSGFSISSYNVHWVRQPPGKGLEWMGRVRYNGDTSYNSALKSRLTISRDTSKNQASLKLSSVTAADTAVYYCTRGPYGGSSEPLFDYWGQGTMVTVSS VL: DIQMTQSPSSLSASVGDRVTITCKASQNINKYLNWFQQKPGKAPRLLIYTTNNLQTGIPSRFSGSGSGTDFTLTISSLQPEDFATYYCLQHNSGYTFGQGTKLEIK : > 50 % SP34
